Source: patent US20250250357A1

Molecular target: T1, human MSLN-R2-his protein (human, UniProt Q13421 391-486)
T1 construct: it is put last here; also called human MSLN-R2 protein; hMSLN-R2-his; not shown: His tag
T1 sequence (Q13421 other isoform, or with tags, fused parts or gaps): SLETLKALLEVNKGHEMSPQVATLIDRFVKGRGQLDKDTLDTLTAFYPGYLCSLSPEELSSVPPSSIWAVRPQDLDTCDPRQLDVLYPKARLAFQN
Assay: ELISA on coated antigen, antibody 20 nM
Outcome: condition met for OD450 of at least 0.07 OD; condition not met for anything lower.

Exam item: decide whether the reported OD450 for S009-F7.53.2 (antibody, human IgG1, kappa, V domains shown, Human-murine chimeric antibody, human IgG1 heavy and kappa light constant regions) VH: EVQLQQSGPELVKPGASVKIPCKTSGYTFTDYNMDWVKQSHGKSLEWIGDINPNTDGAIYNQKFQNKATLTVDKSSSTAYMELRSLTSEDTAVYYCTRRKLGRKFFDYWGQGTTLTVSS VL: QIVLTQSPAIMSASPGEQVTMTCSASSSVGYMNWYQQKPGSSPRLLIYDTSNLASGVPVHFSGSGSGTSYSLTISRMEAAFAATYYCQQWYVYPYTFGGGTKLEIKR is at least 0.07 OD. condition not met

Please give the result for S009-F7.44.20 (antibody, human IgG1, kappa, V domains shown, Human-murine chimeric antibody, human IgG1 heavy and kappa light constant regions) VH: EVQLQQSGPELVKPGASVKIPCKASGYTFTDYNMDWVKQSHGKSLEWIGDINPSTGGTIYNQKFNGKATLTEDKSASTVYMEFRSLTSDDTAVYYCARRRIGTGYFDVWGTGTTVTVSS VL: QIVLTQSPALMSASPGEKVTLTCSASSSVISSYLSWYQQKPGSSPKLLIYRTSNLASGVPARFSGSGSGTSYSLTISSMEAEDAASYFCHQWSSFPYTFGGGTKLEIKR too. condition not met

Please give the result for S009-F7.11.11 (antibody, human IgG1, kappa, V domains shown, Human-murine chimeric antibody, human IgG1 heavy and kappa light constant regions) VH: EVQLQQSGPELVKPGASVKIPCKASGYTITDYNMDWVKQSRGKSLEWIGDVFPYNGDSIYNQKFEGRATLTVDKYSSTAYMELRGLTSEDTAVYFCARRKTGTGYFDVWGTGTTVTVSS VL: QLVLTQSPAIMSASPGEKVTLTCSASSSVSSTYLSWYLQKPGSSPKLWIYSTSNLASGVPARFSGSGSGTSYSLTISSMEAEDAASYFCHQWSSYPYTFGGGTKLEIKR too. condition not met

Please give the result for S009-F7.30.5 (antibody, human IgG1, kappa, V domains shown, Human-murine chimeric antibody, human IgG1 heavy and kappa light constant regions) VH: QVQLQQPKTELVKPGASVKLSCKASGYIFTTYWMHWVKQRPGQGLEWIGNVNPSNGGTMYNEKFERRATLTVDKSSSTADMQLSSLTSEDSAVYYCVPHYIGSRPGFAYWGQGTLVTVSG VL: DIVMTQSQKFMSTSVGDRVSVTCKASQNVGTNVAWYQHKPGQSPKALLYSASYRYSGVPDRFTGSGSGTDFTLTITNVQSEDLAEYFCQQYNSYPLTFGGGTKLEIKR too. condition met

Please give the result for S009-F7.26.15 (antibody, human IgG1, kappa, V domains shown, Human-murine chimeric antibody, human IgG1 heavy and kappa light constant regions) VH: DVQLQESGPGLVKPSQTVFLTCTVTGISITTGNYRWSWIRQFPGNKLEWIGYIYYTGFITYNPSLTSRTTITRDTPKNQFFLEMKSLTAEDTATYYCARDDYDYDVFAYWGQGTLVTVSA VL: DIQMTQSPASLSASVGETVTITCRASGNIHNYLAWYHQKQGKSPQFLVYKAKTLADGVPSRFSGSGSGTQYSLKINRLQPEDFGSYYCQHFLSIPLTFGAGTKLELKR too. condition met

New cases:
Exam item: decide whether the reported OD450 for S009-F7.12.13 (antibody, human IgG1, kappa, V domains shown, Human-murine chimeric antibody, human IgG1 heavy and kappa light constant regions) VH: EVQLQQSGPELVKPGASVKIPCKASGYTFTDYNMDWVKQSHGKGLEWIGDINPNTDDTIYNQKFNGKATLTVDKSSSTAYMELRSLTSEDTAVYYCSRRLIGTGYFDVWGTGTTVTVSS VL: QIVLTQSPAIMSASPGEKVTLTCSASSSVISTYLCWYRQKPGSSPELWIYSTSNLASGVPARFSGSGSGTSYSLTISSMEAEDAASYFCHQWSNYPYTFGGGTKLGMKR is at least 0.07 OD. condition not met

Please give the result for S009-F7.23.19 (antibody, human IgG1, kappa, V domains shown, Human-murine chimeric antibody, human IgG1 heavy and kappa light constant regions) VH: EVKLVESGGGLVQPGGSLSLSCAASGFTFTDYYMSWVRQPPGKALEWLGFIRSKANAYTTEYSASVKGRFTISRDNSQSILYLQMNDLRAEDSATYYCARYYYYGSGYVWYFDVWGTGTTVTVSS VL: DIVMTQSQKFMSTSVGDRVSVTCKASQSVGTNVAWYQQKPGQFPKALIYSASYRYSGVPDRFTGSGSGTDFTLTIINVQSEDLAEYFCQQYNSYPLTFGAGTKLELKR too. condition not met

Please give the result for S009-F7.25.19 (antibody, human IgG1, kappa, V domains shown, Human-murine chimeric antibody, human IgG1 heavy and kappa light constant regions) VH: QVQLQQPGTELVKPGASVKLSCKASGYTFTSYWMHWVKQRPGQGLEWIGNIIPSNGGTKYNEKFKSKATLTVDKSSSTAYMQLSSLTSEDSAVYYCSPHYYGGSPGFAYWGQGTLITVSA VL: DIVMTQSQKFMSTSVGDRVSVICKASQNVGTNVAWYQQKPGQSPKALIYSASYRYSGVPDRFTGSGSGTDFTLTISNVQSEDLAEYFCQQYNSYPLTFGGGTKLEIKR too. condition met
